# Target of assay: T1, GST-SITAC 18 PDZ domain 2 fusion protein (human), Q9H190
# T1 chain: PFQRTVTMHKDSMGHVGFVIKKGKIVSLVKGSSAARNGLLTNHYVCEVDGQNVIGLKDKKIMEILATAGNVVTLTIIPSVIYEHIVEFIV
# Assay comment: G3 assay titration, immobilised GST-PDZ
No end group written: not given here.
Outcome measure: EC50 (nM)
Give the number; nM is assumed, so skip it.

Inquiry: Identify measured EC50 associated with YGRKKRRQRRRSTNSVRLML (not fully specified)
Reply text: 90
